B1: EHEE_rd2_0601 (parent)
chain: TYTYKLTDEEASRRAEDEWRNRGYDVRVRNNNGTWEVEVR

# Variants of: B1
# MEASUREMENT_DESCRIPTION: folding stability dG (cDNA display proteolysis); higher = more stable
# EXPERIMENTAL_PARAMETERS: PBS, room temperature
A collection of variants and their measured folding stability dG
PARAMETER_MEASURED: folding stability dG (kcal/mol)

| SEQUENCE_STRING | PARAMETER_MEASURED | DATA_VALUE |
| --- | --- | --- |
| TYTYKLTDEEASRRAEDEWRNRGYDVRVRNNNGTWEVEIR [V39I] | folding stability dG | 1.41 |
| TYTYKLTDEEASRRAEDEHRNRGYDVRVRNNNGTWEVEVR [W19H] | folding stability dG | -0.397 |
| TYTYKLTDEEASRRATDEWRNRGYDVRVRNNNGTWEVEVR [E16T] | folding stability dG | 1.29 |
| TYTYKLTDEEDSRRAEDEWRNRGYDVRVRNNNGTWEVEVR [A11D] | folding stability dG | 1.12 |
| TYTYKLTDEEASRRAEDEWYNRGYDVRVRNNNGTWEVEVR [R20Y] | folding stability dG | 0.246 |
| TYTYKLTDEEASRRAEDEWRNRGYDVRVRNNNGTWEVECR [V39C] | folding stability dG | 1.46 |
| TYTYKLTDEEASRRAEDEWRNRFYDVRVRNNNGTWEVEVR [G23F] | folding stability dG | -0.542 |
| TYTYKFTDEEASRRAEDEWRNRGYDVRVRNNNGTWEVEVR [L6F] | folding stability dG | 3.77 |
| TYTYKLTDEEASRRAEDEWRNRGYDVRVRNNNDTWEVEVR [G33D] | folding stability dG | 0.603 |
| TYTYKLADEEASRRAEDEWRNRGYDVRVRNNNGTWEVEVR [T7A] | folding stability dG | 1.94 |
| TYTYKLSDEEASRRAEDEWRNRGYDVRVRNNNGTWEVEVR [T7S] | folding stability dG | 1.63 |
| TYTYKLTDEEASRRAEDEWRNQGYDVRVRNNNGTWEVEVR [R22Q] | folding stability dG | 0.939 |
| TYTYKLTDEEASRRAEDEWRNRGYDVRVRNNNGHWEVEVR [T34H] | folding stability dG | 1.2 |
| TYTYKTTDEEASRRAEDEWRNRGYDVRVRNNNGTWEVEVR [L6T] | folding stability dG | 1.8 |
| TYTYKLTDEEASRRAEDEWRNTGYDVRVRNNNGTWEVEVR [R22T] | folding stability dG | -0.242 |
| TYTYKLTDEEASRRAEDEWRNRGYDVRVRNHNGTWEVEVR [N31H] | folding stability dG | 1.32 |
| TYTYKLTDEEASRRAEDEWRNCGYDVRVRNNNGTWEVEVR [R22C] | folding stability dG | 1.03 |
| TYTYKLTDEEQSRRAEDEWRNRGYDVRVRNNNGTWEVEVR [A11Q] | folding stability dG | 1.22 |
| TYTYKLTDEEASRRQEDEWRNRGYDVRVRNNNGTWEVEVR [A15Q] | folding stability dG | 0.788 |

Where do these numbers come from? They come from the MegaScale stability set (Tsuboyama et al. 2023).
